The reported numbers originate from patent US20240285571A1.

# Tested on: E. faecium
# methodNotes: Broth microdilution MIC (Example 5)
# Type: cell-based
# runParameters: E. faecium MMX 485; VRE vanA
Here, each record is paired with measured MIC data.

compound	testSystem	MIC
C[C@H]1COc2c(N3CCN(C)CC3)c(F)cc3c(=O)c(C(=O)O)cn1c23 [Levofloxacin]	E. faecium	>64 µg/mL
CCC[C@@H]1C[C@@H](C(=O)N[C@@H]([C@H]2O[C@H](SC)[C@H](O)[C@@H](O)[C@H]2O)[C@H](C)Cl)N(C)C1 [Clindamycin]	E. faecium	>32 µg/mL
CC[C@H]1OC(=O)[C@H](C)[C@@H](O[C@H]2C[C@@](C)(OC)[C@@H](O)[C@H](C)O2)[C@H](C)[C@@H](O[C@@H]2O[C@H](C)C[C@H](N(C)C)[C@H]2O)[C@](C)(O)C[C@@H](C)C(=O)[C@H](C)[C@@H](O)[C@]1(C)O [Erythromycin]	E. faecium	>64 µg/mL
CC(C)(O/N=C(\C(=O)N[C@@H]1C(=O)N2C(C(=O)[O-])=C(C[n+]3ccccc3)CS[C@H]12)c1csc(N)n1)C(=O)O [Ceftazidime]	E. faecium	>32 µg/mL
